- tested system: UniProtKB P51681
- Sequence (P51681 whole entry): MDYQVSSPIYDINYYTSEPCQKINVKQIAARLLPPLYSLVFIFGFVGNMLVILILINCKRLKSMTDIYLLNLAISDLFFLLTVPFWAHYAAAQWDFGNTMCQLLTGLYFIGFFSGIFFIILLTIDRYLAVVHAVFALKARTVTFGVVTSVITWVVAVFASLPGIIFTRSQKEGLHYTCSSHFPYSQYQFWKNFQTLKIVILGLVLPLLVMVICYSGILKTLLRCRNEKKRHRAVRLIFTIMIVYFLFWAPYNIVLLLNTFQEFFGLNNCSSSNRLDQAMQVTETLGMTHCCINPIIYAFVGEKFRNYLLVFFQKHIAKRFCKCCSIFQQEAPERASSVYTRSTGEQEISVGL
- assay: Inhibition of CCR5 (unknown origin) expressed in CHO cells assessed as inhibition of RANTES-induced intracellular Ca2+ mobilization after 10 mins by Fluo-4 AM staining-based fluorescence assay
- Type: functional, cell-based
Catalogue of IC50 readings, one per entry.
Answer format: numeric, µM implied, no suffix.

Query CC(=O)N1CCC(C(=O)N(CCCN2CCC(C(=O)NCCc3ccc(Cl)cc3)CC2)c2cccc(Cl)c2)CC1 yields IC50 of 0.0867

Query CC(=O)N1CCC(C(=O)N(CCCN2CCC(C(=O)NCc3ccc(F)cc3)CC2)c2cccc(Cl)c2)CC1 yields IC50 of 0.0355

Query CCN(Cc1ccc(F)cc1)C(=O)C1CCN(CCCN(C(=O)C2CCN(C(C)=O)CC2)c2cccc(Cl)c2)CC1 yields IC50 of 0.32

Query CC(=O)N1CCC(C(=O)N(CCCN2CCC(C(=O)NCc3ccc(C#N)cc3)CC2)c2cccc(Cl)c2)CC1 yields IC50 of 0.0753

Query CCN(Cc1ccc(Cl)cc1)C(=O)C1CCN(CCCN(C(=O)C2CCN(C(C)=O)CC2)c2cccc(Cl)c2)CC1 yields IC50 of 0.0935

Query CCN(Cc1ccccc1)C(=O)C1CCN(CCCN(C(=O)C2CCN(C(C)=O)CC2)c2cccc(Cl)c2)CC1 yields IC50 of 0.525

Query CC(=O)N1CCC(C(=O)N(CCCN2CCC(C(=O)NCCc3ccccc3)CC2)c2cccc(Cl)c2)CC1 yields IC50 of 0.076
